// values below are reported inhibition
assay: NOD1 signaling inhibitors, primary screen, cell-based, luminescence, uHTS (AID 1578); settings: NOD1-driven NF-kB luciferase reporter cells, at 4 µM, stronger effect = higher value;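 further: HEK-293T reporter cells stimulated with the NOD1 agonist gamma-tri-DAP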
Out of some 290,000 compounds screened, about 3,000 (1%) were called active. For the sample, actives were picked, then their nearest neighbours and some compounds at random.
Reply with just the number (in %).

>  <compound>
COc1ccc(C(=O)NC(=S)Nc2ccc(CN3CCOCC3)cc2)cc1

>  <metricName>
inhibition

>  <assayResult>
-0.3

$$$$
>  <compound>
O=C(c1cccc([N+](=O)[O-])c1)c1ccccn1

>  <metricName>
inhibition

>  <assayResult>
-6.3

$$$$
>  <compound>
O=S(=O)(NC1CCCC1)c1ccc(Br)s1

>  <metricName>
inhibition

>  <assayResult>
-14

$$$$

inhibition reported for this compound Cc1ccccc1Oc1ncnc(N)c1[N+](=O)[O-] : 4.6

inhibition reported for this compound O=S(=O)(NC1CCCCC1)c1ccc(Br)s1 : -13.1

inhibition reported for this compound COc1ccc(CNC(=O)C2(CC(=O)NC(C)(C)C)CCCC2)cc1 : 4.9

inhibition reported for this compound CCOc1ccc(/C=N/N2C(=O)C(CC(=O)Nc3ccc(F)cc3F)SC2=NC)cc1OC (configuration not stated) : -23
